Values from patent US20250270319A1

tested-on: T1, recombinant human CD33 protein (Sino Biologicals) (human, UniProt P20138 18-259)
T1 construct: Bought protein; also called recombinant CD33
assay-text: BLI (ForteBio), antibody on anti-human Fc sensor, CD33 10 nM
quantity-kind: Kd (nM)
Numbers only, in nM.

Worked cases, answers included:
| binder | scale-unit | Kd |
| --- | --- | --- |
| anti-CD33 antibody 6C7H23 (antibody, V domains shown, VH/VL only) VH: EVQLVESGGGLVQPGGSLRLSCAGSGFTFSNYVMNWVRQAPGKGLEWVAEIRLKSNNYVTNYAASVKGRFTISRDDSKNSVYLQMNSLKTEDTGVYYCTRAGYYVPFAYWGQGTLVTVSS VL: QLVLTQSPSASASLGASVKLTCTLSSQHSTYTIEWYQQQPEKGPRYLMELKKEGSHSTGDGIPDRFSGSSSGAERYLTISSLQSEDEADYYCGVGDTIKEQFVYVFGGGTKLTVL | nM | 0.558 |
| anti-CD33 antibody 6C7H21 (antibody, V domains shown, VH/VL only) VH: EVQLVESGGGLVQPGGSLRLSCAGSGFTFSNYQMNWVRQAPGKGLEWVAEIRLKSNNYVTNYAASVKGRFTISRDDSKNSVYLQMNSLKTEDTGVYYCTRAGYYVPFAYWGQGTLVTVSS VL: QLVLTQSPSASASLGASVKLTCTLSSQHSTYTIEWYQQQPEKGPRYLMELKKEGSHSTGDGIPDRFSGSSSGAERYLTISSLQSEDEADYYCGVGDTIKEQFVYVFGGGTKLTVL | nM | 0.528 |
| anti-CD33 antibody 6C7H16 (antibody, V domains shown, VH/VL only) VH: EVQLVESGGGLVQPGGSLRLSCAGSGFTFSNYLMNWVRQAPGKGLEWVAEIRLKSNNYVTNYAASVKGRFTISRDDSKNSVYLQMNSLKTEDTGVYYCTRAGYYVPFAYWGQGTLVTVSS VL: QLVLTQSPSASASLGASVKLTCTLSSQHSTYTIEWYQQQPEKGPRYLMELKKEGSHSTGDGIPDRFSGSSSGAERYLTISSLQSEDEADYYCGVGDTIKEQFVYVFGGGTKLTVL | nM | 0.782 |
| anti-CD33 antibody 6C7H8 (antibody, IgG1, V domains shown, VH/VL only; also called 6C7H8 IgG1; parental antibody) VH: EVQLVESGGGLVQPGGSLRLSCAGSGFTFSNYCMNWVRQAPGKGLEWVAEIRLKSNNYVTNYAASVKGRFTISRDDSKNSVYLQMNSLKTEDTGVYYCTRAGYYVPFAYWGQGTLVTVSS VL: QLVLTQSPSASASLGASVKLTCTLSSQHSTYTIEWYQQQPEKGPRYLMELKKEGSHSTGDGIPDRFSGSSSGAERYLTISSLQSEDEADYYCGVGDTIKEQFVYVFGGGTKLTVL | nM | 0.722 |

Alright, here's another binder for you.
Challenge: Fill in Kd for record anti-CD33 antibody 6C7H10 (antibody, IgG1, V domains shown, VH/VL only; also called 6C7H10 IgG1) VH: EVQLVESGGGLVQPGGSLRLSCAASGFTFSEYAMNWVRQAPGKGLEWVGEIRLKSNNYVTNYAASVKGRFTISRDDSKNSVYLQMNSLKTEDTGVYYCTRAGYYVPFAYWGQGTLVTVSS VL: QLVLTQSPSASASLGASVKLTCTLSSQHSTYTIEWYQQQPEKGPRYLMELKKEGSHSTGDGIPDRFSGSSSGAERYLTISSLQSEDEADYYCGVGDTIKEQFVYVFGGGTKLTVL
Response given: 0.561
